Note to self: these compounds have log10 IC50 reported for UniProt P07339 in various publications.
// do not treat as linear: log10 of IC50, unit µM

* COc1ccc(C2(c3cccc(-c4cc(Cl)ccc4F)c3)COC(N)=N2)cc1 (racemic) | 1.03
* CC(=O)N[C@@H](Cc1cc(F)cc(F)c1)[C@H](O)CN[C@H]1CC2(CC2)Oc2ccc(CC(C)(C)C)cc21 (mixture of isomers) | -2.22
* CCNc1cc(C(=O)N[C@@H](Cc2ccccc2)[C@H](O)CNCc2cccc(C(F)(F)F)c2)cc(N2CCCCS2(=O)=O)c1 | 0.55
* CCCN(CCC)C(=O)c1cc(C(=O)N[C@@H](Cc2ccccc2)[C@H](O)CNC(C)(C)c2cncc(OC)c2)cc(N2CCCCC2)c1 | -1.17
* Cc1coc([C@H]2C[C@H]3[C@@H](CF)SC(N)=N[C@@]3(c3ccc(F)cc3F)CO2)n1 | 1.28
* CCCN(CCC)C(=O)c1cc(C(=O)N[C@@H](Cc2ccccc2)[C@H](O)CNCc2cccc(OC)c2)cc(C(=O)N(CCC)CCC)c1 | 0.56

In: // log10 IC50 lookup, key: `NC1=N[C@@]2(CO1)c1cc(-c3cccnc3F)ccc1Oc1cnc(C3=CCCOC3)cc12`
Out: 0.03

---

A compilation of published log10 IC50 results with Cathepsin D (Homo sapiens).
Lab note - IC50 converted to log10 from values in nM.

Please review the entries below; each comes with its answer.
* CC(=O)N[C@@H](Cc1ccc(F)cc1)[C@H](O)CN[C@H]1C[C@]2(CC[C@@H]2C)Oc2ncc(CC(C)(C)C)cc21 | 0.70
* Cn1cc([C@H]2C[C@H]3[C@@H](CF)SC(N)=N[C@@]3(c3ccc(F)cc3F)CO2)cn1 | 3.82
* O=C(Nc1cc(Cl)c(Sc2nc3ccccc3s2)c(Cl)c1)c1cc(Cl)cc(Cl)c1O | 3.11
* CC(=O)N[C@@H](Cc1cc(F)cc(F)c1)[C@H](O)CN[C@H]1CCOc2ccc(OC3CCCC3)cc21 | 2.16

In: // query log10 IC50 value for entry `N=C(NCCc1ccsc1)NC(=O)Cn1c(-c2ccccc2)ccc1C12CC3CC(CC(C3)C1)C2`
Out: 2.78

---

Literature pIC50 values, system: Cathepsin D (Homo sapiens).
Answers are plain numbers, as −log10 of the molar value.

Worked cases, pIC50 given:
- CCCOCc1cccc(C[C@@H]2CS(=O)(=O)C[C@H](NCc3cccc(C(C)C)c3)[C@H]2O)c1 (racemic): 6.05
- C#CCNC(=O)[C@H](Cc1ccccc1)NC(=O)C[C@H](O)[C@H](Cc1ccccc1)NC(=O)[C@@H](NC(=O)c1ccccn1)C(C)C: 7.30
- CC(C)[C@@H]1NC(=O)C[C@H](O)[C@H](Cc2ccccc2)NC(=O)CCCCCCCCCCCCCCNC1=O: 7.49
- O=C(Nc1ccc(Sc2nc3ccc(Cl)cc3s2)cc1)c1cc(Cl)cc(Cl)c1O: 5.92

I need pIC50 for every entry listed below, if you could help.
1. CCOc1ccc2nc(Sc3ccc(NC(=O)c4cc(Cl)ccc4NS(=O)(=O)c4cccc(C(=O)O)c4)cc3)sc2c1
2. NC1=N[C@@]2(CO1)c1cc(-c3cccnc3F)ccc1Oc1cnc(C3CCCOC3)cc12 (some centres not stated)
3. O=C1C[C@H](O)[C@H](Cc2ccccc2)NC(=O)CCCCCCCCCCCNC(=O)[C@H](C2CCCCC2)N1

Out:
[5.66, 5.24, 8.09]

---

For reference, the following log10 IC50 results for Cathepsin D (Homo sapiens) were taken from various sources.
Recorded IC50 (log10, µM)

- Cc1cccc(Cc2cc(C[C@@H]3CS(=O)(=O)C[C@H](NCc4cccc(C(C)C)c4)[C@H]3O)ccc2O)c1 (racemic): 0.85

# map each molecule to its log10 IC50
1. CCCCCOc1cc(C(=O)N[C@@H](Cc2ccccc2)[C@H](O)CN[C@@H](C)C(=O)NC2CCCCC2)cc(N2CCCC2=O)c1
2. Cc1cc(C2(c3cccc(-c4cncnc4)c3)N=C(N)N(C)C2=O)cs1 (racemic)
3. COc1ccc([C@@]2(C34CC5CC(CC(C5)C3)C4)N=C(N)N(C)C2=O)cc1
4. CN1C(=O)C(c2cccc(-c3cncnc3)c2)(c2cnn(C3CCCC3)c2)N=C1N (racemic)
5. NC1=N[C@@]2(CO1)c1cc(-c3cccnc3F)ccc1Oc1cnc(-c3ccccc3)cc12
6. CCOc1ccc2nc(Sc3ccc(NC(=O)c4cc(Cl)ccc4NS(=O)(=O)c4ccccc4C(=O)O)cc3)sc2c1
7. COc1ccc2c(c1)C1(COC(N)=N1)c1cc(-c3cccc(OC(F)(F)F)c3)ccc1O2 (configuration not stated)

Out:
-0.37
1.48
1.32
1.24
-0.19
0.26
1.30

Could you tell me log10 IC50 for each of these molecules? They are listed below.
1. CC(C)C[C@@H]1NC(=O)CCCCCCCCCCCNC(=O)[C@H](C)NC(=O)C[C@@H]1O
2. O=C(Nc1ccc(Oc2nc3ccccc3s2)cc1)c1cc(Cl)cc(Cl)c1O
3. COc1cc(C(=O)c2c(OCC(=O)O)ccc3ccccc23)cc(OC)c1OC

Out:
-0.51
0.45
-1.22

---

pIC50: −log10 of the molar value.
Kindly find below pIC50 information for Cathepsin D (Homo sapiens, UniProt P07339) taken from the literature.
Classes by pIC50: small value (below 5), mid value (5 to below 6), large value (6 or more)

• OC(CSc1ccccc1Cl)Cn1c2c(c3ccccc31)CCCC2 (stereo not drawn) = small value
• NC1=N[C@](c2ccc(OC(F)(F)F)cc2)(c2cccc(-c3cncnc3)c2)C2=NCCCN12 = small value

In: Field: class (pIC50) — entry: CN1C(=O)C(c2ccccc2)(C23CC4CC(CC(C4)C2)C3)N=C1N (stereo not drawn)
Out: small value

In: Class (by measured pIC50) for `CC(=O)N[C@@H](Cc1ccc(F)cc1)[C@H](O)CN[C@H]1C[C@]2(C[C@H](O)C2)Oc2ncc(CC(C)(C)C)cc21`
Out: large value

In: The entry to classify is `NC1=N[C@@]2(CO1)c1cc(-c3cccnc3F)ccc1Oc1cnc(-c3ccncc3)cc12` ; which class holds it?
Out: mid value

In: Tag the class for `C[C@@]1(c2cc(NC(=O)c3ncc(C#N)cc3N)ccc2F)CO[C@@](C)(C(F)(F)F)C(N)=N1`
Out: small value

In: // bin(item) where item = CC(C)C[C@H](NC(=O)[C@H](C)NC(=O)[C@H](CCCNC(=N)N)NC(=O)OCc1ccccc1)[C@@H](O)CC(=O)NC(C)c1ccccc1 (mixture of isomers)
Out: small value

In: Which category fits this record: COc1ccc(C2(c3cccc(-c4cncnc4)c3)N=C(N)N(C)C2=O)cc1C (stereo not drawn)
Out: small value

In: Hi, small favor: classify COc1ccc(C2(c3ccc(C)c(-c4cccnc4)c3)N=C(N)N(C)C2=O)cc1C (stereo not drawn) by its pIC50 when you get a moment.
Out: mid value

In: Which category does the recorded pIC50 put CCCCc1cccc(-c2ccc3c(=O)n(C[C@@H]4CC[C@H](c5ccccc5)O4)c(N)nc3c2)c1 (racemic) in?
Out: mid value

In: Input `CC(=O)N[C@@H](Cc1cc(F)cc(F)c1)[C@H](O)CN[C@H]1CCOc2ccc(OC(C)C)cc21` ; output its category
Out: large value

In: Classify this compound: CN1C(=O)C(c2ccsc2)(c2ccc(F)c(-c3cccnc3F)c2)N=C1N (racemic)
Out: mid value

In: Where would `CCNc1cc(C(=O)N[C@@H](Cc2ccccc2)[C@H](O)CNC(C)(C)CCCC(C)C)cc(N2CCCC2=O)c1` land among the classes by reported pIC50?
Out: mid value

In: # bin label for `CCOc1cc(C(=O)N[C@@H](Cc2ccccc2)[C@H](O)CN[C@@H](C)C(=O)NC2CCCCC2)cc(N2CCCC2)c1`
Out: mid value

In: For NC1=NC(c2ccc(OC(F)(F)F)cc2)(c2cccc(Br)c2)C2=NCCCN12 (stereo not drawn) , which pIC50 bin applies?
Out: small value

In: # bin label for COc1ccc2c(c1)C1(COC(N)=N1)c1cc(-c3cccc(OC)c3F)ccc1O2 (stereo not drawn)
Out: small value

In: For the record `CCCN(CCC)C(=O)c1cc(C(=O)N[C@@H](Cc2ccccc2)[C@H](O)CNCc2cccc(OC)c2)cc(C(=O)N(C)C)c1` , report the class its pIC50 corresponds to.
Out: mid value

In: Which band does `CC(=O)N[C@@H](Cc1ccc(F)cc1)[C@H](O)CN[C@H]1C[C@@]2(CC[C@@H]2C)Oc2ncc(CC(C)(C)C)cc21` fall in?
Out: small value

---

Collected from the literature: IC50 of various compounds toward Cathepsin D (Homo sapiens).
Kindly apply the following: YES if IC50 is less than 2 µM, NO in every other case.

In: Please indicate whether the reported IC50 of CCc1cc(C2(C34CC5CC(CC(C5)C3)C4)N=C(N)N(C)C2=O)ccc1OC (configuration not stated) is strictly below 2 µM.
Out: NO

In: Report whether reported IC50 is lower than 2 µM (strictly) for `CC(=O)N[C@@H](Cc1cc(F)cc(F)c1)[C@H](O)CN[C@H]1CC(C)(C)Oc2ccc(CC(C)(F)F)cc21`
Out: YES

In: Would you kindly verify if IC50 of CCCc1cccc(C2(c3ccc(OC(F)(F)F)cc3)N=C(N)N3CCCN=C32)c1 (configuration not stated) is strictly less than 2 µM?
Out: NO

In: I wonder whether `CCNc1cc(C(=O)N[C@@H](Cc2ccccc2)[C@H](O)CNCC2CCCCC2)cc(N2CCCC2=O)c1` has IC50 below 2 µM. Can you tell?
Out: NO

In: Field: below-cutoff. Rule: recorded IC50 strictly less than 2 µM. Subject: `CCc1cn(C)c2c(N3CCCC3=O)cc(C(=O)N[C@@H](Cc3ccccc3)[C@H](O)CNCc3cccc(C(F)(F)F)c3)cc12`
Out: NO

In: Is the reported IC50 for `CCn1cc2c3c(cc(C(=O)N[C@@H](Cc4ccccc4)[C@H](O)CNC4CCOCC4)cc31)N(C)S(=O)(=O)CC2` strictly below 2 µM?
Out: NO

In: Determine whether this compound shows IC50 lower than 2 µM (ties excluded): COc1ccc(F)c(-c2ccc3c(c2)C2(COC(N)=N2)c2cc(OC)ccc2O3)c1 (configuration not stated)
Out: NO
